Reported values of pKi for individual entries
# System under test: PKC delta kinase (Homo sapiens)
# Sequence (Q05655 whole entry): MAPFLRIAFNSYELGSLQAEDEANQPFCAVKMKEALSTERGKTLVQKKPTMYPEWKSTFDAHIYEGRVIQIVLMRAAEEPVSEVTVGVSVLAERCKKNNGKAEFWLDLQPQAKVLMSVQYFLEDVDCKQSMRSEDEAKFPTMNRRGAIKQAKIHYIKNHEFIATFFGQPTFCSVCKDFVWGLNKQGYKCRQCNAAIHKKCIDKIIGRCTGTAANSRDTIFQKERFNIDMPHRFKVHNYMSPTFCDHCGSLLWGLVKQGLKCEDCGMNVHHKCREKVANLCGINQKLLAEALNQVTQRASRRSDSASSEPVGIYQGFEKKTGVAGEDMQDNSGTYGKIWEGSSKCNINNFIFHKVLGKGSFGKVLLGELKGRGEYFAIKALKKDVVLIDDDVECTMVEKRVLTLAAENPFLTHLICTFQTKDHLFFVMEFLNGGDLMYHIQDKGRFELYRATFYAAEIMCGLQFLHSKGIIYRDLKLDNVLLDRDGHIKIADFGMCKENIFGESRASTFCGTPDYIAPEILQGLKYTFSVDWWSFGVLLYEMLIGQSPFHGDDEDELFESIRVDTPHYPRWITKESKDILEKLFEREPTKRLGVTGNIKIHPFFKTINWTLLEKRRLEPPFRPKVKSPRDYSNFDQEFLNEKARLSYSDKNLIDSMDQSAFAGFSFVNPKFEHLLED
# Assay info: PKC delta kinase inhibition, coupled-enzyme NADH absorbance assay (Ki)
# Type: biochemical
# Experimental context: 150 μM ATP, 46 nM PKC delta, 30° C.; read-out: Ki PKC delta
pKi: −log10 of the molar value.
Property label: pKi

Compound | Property label | Measured result
CNCC(F)(F)c1cc(-c2ccnc3[nH]ncc23)cc(C2(C#N)CC2)c1 | pKi | > 5.55
CCC(C)(C#N)c1cccc(-c2ccnc3[nH]ncc23)c1 (stereo not shown) | pKi | > 5.55
COc1ccc(CC(C)(CN)c2cccc(-c3ccnc4[nH]ncc34)c2)cc1 (stereo not shown) | pKi | > 6.30
CCC(C)(C#N)c1cc(CC#N)cc(-c2ccnc3[nH]ncc23)c1 (stereo not shown) | pKi | < 5.70
N#CC1(c2cccc(-c3ccnc4[nH]ncc34)n2)CCNC1 (stereo not shown) | pKi | > 6.30
CCC(F)(CN)c1cc(C)cc(-c2ccnc3[nH]nc(C(F)(F)F)c23)c1 (stereo not shown) | pKi | > 6.30
CC(C)(O)C#Cc1cc(-c2ccnc3[nH]nc(C(F)(F)F)c23)cc(C2(C#N)CC2)c1 | pKi | < 5.92
CCc1n[nH]c2nccc(-c3cc(CCCN)cc(C4(C#N)CC4)c3)c12 | pKi | > 6.30
CC#CCC(C)(C#N)c1cccc(-c2ccnc3[nH]ncc23)c1 (stereo not shown) | pKi | > 5.55
CCCc1cc(-c2ccnc3[nH]ncc23)cc(C2(CC#N)CCC2)c1 | pKi | < 5.70
CCC(C)(C#N)c1cc(C=O)cc(-c2ccnc3[nH]ncc23)c1 (stereo not shown) | pKi | < 5.70
N#CC1(c2cc(-c3ccnc4[nH]ncc34)cc(C(F)(F)F)c2)CCC1 | pKi | < 5.55
CCCC(C)(C#N)c1cccc(-c2ccnc3[nH]ncc23)c1 (stereo not shown) | pKi | < 5.55
CC(C)(C)c1n[nH]c2nccc(-c3cc(Br)cc(C(C)(C)C#N)c3)c12 | pKi | < 5.70
CCCc1cc(-c2ccnc3[nH]ncc23)cc(C2(CN)CCCC2)c1 | pKi | < 5.55
CC(O)c1cc(-c2ccnc3[nH]ncc23)cc(C(C)(C)C#N)c1 (stereo not shown) | pKi | < 5.55
C/C=C\C1(c2cccc(-c3ccnc4[nH]ncc34)c2)CCNC1 (stereo not shown) | pKi | > 6.30
OCC1(c2cccc(-c3ccnc4[nH]nc(C(F)(F)F)c34)c2)CCC1 | pKi | > 5.55
CC/C=C\C1(c2cccc(-c3ccnc4[nH]ncc34)c2)CCNC1 (stereo not shown) | pKi | > 6.30
N#CC1(c2cccc(-c3ccnc4[nH]nc(Cl)c34)c2)CCC1 | pKi | > 6.30
CCC(C)(C#N)c1cc(CCC(F)F)cc(-c2ccnc3[nH]ncc23)c1 (stereo not shown) | pKi | < 5.70
C#CCC(C)(CN)c1cccc(-c2ccnc3[nH]ncc23)c1 (stereo not shown) | pKi | > 7.30

---

Reported pKi is given for each of the following compounds.
# System under test: PKC alpha kinase (Homo sapiens)
# Assay info: PKC alpha kinase inhibition, coupled-enzyme NADH absorbance assay (Ki)
# Assay type: biochemical
# Experimental context: 130 μM ATP, 4.5 nM PKC alpha, 30° C.; read-out: Ki PKC alpha
pKi: −log10 of the molar value.
Property label: pKi

Compound | Property label | Measured result
CC(C)=CC1(c2cccc(-c3ccnc4[nH]ncc34)c2)CCNC1 (stereo not drawn) [Compound 199] | pKi | > 6.30
COc1ccc(C2(CN)CCC2)cc1-c1ccnc2[nH]ncc12 [Compound 222] | pKi | < 5.92
NCC1CCc2ccc(-c3ccnc4[nH]ncc34)cc21 (stereo not drawn) [Compound 308] | pKi | < 5.92
CCC(C)(CC#N)c1cc(-c2ccnc3[nH]ncc23)cc(C(F)(F)CCC2CCCC2)c1 (stereo not drawn) [Compound 239] | pKi | < 5.92
CCC(C)(CN)c1cccc(-c2ccnc3[nH]ncc23)c1 (stereo not drawn) [Compound 41] | pKi | > 6.30
NCC1(c2cccc(-c3ccnc4[nH]ncc34)c2)CCC1 [Compound 49] | pKi | > 5.55
NCC1(c2cccc(-c3ccnc4[nH]nc(C(F)(F)F)c34)c2)CC1 [Compound 278] | pKi | > 6.30
Cc1cc(-c2ccnc3[nH]ncc23)cc(C2(C#N)CCC2)c1 [Compound 85] | pKi | > 5.55
CCSc1cc(-c2ccnc3[nH]ncc23)cc(C(C)(CC)CN)c1 (stereo not drawn) [Compound 166] | pKi | > 6.30
N#C[C@]1(c2cccc(-c3ccnc4[nH]ncc34)c2)C[C@@H](O)C1 [Compound 220] | pKi | < 5.92
CCC(CN)c1cccc(-c2ccnc3[nH]ncc23)c1 (stereo not drawn) [Compound 232] | pKi | > 6.30
Cc1cnc2[nH]ncc2c1-c1cccc(C(C)(C)CN)c1 [Compound 237] | pKi | > 6.30
OCC1(c2cccc(-c3ccnc4[nH]ncc34)c2)CCC1 [Compound 242] | pKi | < 5.92
NCC1(c2cc(F)cc(-c3ccnc4[nH]nc(C(F)(F)F)c34)c2)CCOCC1 [Compound 276] | pKi | > 6.30
CCC(C)(CN)c1cc(-c2ccnc3[nH]ncc23)cc(C(F)(F)F)c1 (stereo not drawn) [Compound 139] | pKi | > 6.30
Cc1n[nH]c2nccc(-c3cc(F)cc(C4(CN)CCC4)c3)c12 [Compound 262] | pKi | > 6.30
CC(CN)(Cc1cccnc1)c1cccc(-c2ccnc3[nH]ncc23)c1 (stereo not drawn) [Compound 171] | pKi | > 6.30
CC(C#N)(Cc1ccccn1)c1cccc(-c2ccnc3[nH]ncc23)c1 (stereo not drawn) [Compound 115] | pKi | < 5.92
N#CC1(c2cc(CCCN)cc(-c3ccnc4[nH]nc(C(F)(F)F)c34)c2)CC1 [Compound 283] | pKi | > 6.30
CCC(O)c1cccc(-c2ccnc3[nH]ncc23)c1 (stereo not drawn) [Compound 77] | pKi | < 5.55
CCC(C)(C#N)c1cc(-c2ccnc3[nH]ncc23)cc(C(C)(F)F)c1 (stereo not drawn) [Compound 111] | pKi | > 6.30
CC(CN)(Cc1ccncc1)c1cccc(-c2ccnc3[nH]ncc23)c1 (stereo not drawn) [Compound 172] | pKi | > 5.55
CC(N)c1cccc(-c2ccnc3[nH]ncc23)c1 (stereo not drawn) [Compound 246] | pKi | < 5.92
CCC1(c2cc(C)cc(-c3ccnc4[nH]ncc34)c2)CNC(=O)O1 (stereo not drawn) [Compound 228] | pKi | > 6.30
C=CCc1cc(-c2ccnc3[nH]ncc23)cc(C(C)(C)CC#N)c1 [Compound 217] | pKi | < 5.92
CCC1(c2cc(C)cc(-c3ccnc4[nH]nc(C(F)(F)F)c34)c2)CNC(=O)O1 (stereo not drawn) [Compound 292] | pKi | > 6.30
CCC(C#N)c1cc(C)cc(-c2ccnc3[nH]ncc23)c1 (stereo not drawn) [Compound 86] | pKi | > 5.55
N[C@H]1CCC[C@@H]1c1cccc(-c2ccnc3[nH]ncc23)c1 [Compound 251] | pKi | < 5.92
CCCc1cc(-c2ccnc3[nH]nc(C(F)(F)F)c23)cc(C2(C#N)CC2)c1 [Compound 313] | pKi | < 5.92
NCC1(c2cccc(-c3ccnc4[nH]nc(C(F)(F)F)c34)c2)CCC1 [Compound 280] | pKi | > 6.30
C=CC1(c2cccc(-c3ccnc4[nH]ncc34)c2)CCNC1 (stereo not drawn) [Compound 193] | pKi | > 6.30
FC(F)(F)c1n[nH]c2nccc(-c3cccc(C4(COCc5ccccc5)CC4)c3)c12 [Compound 289] | pKi | < 5.92
CC(C)(C#N)c1cc(CN)cc(-c2ccnc3[nH]ncc23)c1 [Compound 76] | pKi | < 5.55
CCC(C)(CN)c1cc(F)cc(-c2ccnc3[nH]nc(Cl)c23)c1 (stereo not drawn) [Compound 258] | pKi | > 7.30
COC(CN)c1cc(C)cc(-c2ccnc3[nH]ncc23)c1 (stereo not drawn) [Compound 248] | pKi | > 5.55
CCC(C)(C#N)c1cc(-c2ccnc3[nH]ncc23)cc(C(F)(F)CC2CCCCC2)c1 (stereo not drawn) [Compound 119] | pKi | < 5.92
